Values were extracted from ChEMBL document CHEMBL1944539.

// Activity lookup, one value per entry
system: HOP-62; test: Cytotoxicity against human HOP62 cells assessed as cell growth at 10 uM; type: cell-based; settings: hop-62, 10 µM
The answer is to be given in %; state only the numeric part.

COC(=O)c1cc2c3c(n1)C(=O)C(=O)C(Cl)=C3N(C)C2=O: 110.6
COC(=O)c1cc(C(=O)OC)c2c(Cl)cc(N)cc2n1: 108.99
CN1C(=O)c2cc(C(=O)NCc3ccccc3)nc3c(Cl)cc(Cl)c1c23: 113.2
CN(C)C(=O)c1cc2c3c(c(Cl)cc(Cl)c3n1)N(C)C2=O: 118.26

(Q) Entry under review: COC(=O)c1cc(C(N)=O)nc2cc(NC(C)=O)cc(Cl)c12 . Reported Activity?
(A) 103.41

(Q) # Activity lookup, item CN1C(=O)c2cc(C(N)=O)nc3c(Cl)cc(Cl)c1c23
(A) 105.32

---

Below, each of the compounds is paired with its reported Imax value.
target: Ribosyldihydronicotinamide dehydrogenase [quinone] (Homo sapiens) (UniProt P16083); experiment: Inhibition of human quinone reductase 2 using NMeH as substrate by MTT assay relative to control
Sequence (P16083 whole entry): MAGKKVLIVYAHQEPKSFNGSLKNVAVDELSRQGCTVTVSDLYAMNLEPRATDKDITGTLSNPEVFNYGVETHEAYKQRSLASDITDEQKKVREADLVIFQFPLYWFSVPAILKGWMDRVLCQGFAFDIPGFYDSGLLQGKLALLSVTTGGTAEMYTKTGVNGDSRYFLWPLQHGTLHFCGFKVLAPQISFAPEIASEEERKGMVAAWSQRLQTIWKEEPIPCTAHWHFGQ
Value expressed in %; do not type the unit.

Solved cases (3 shown):
COC(=O)c1cc(C(=O)OC)c2c(Cl)cc(N)cc2n1: 87.9
COC(=O)c1cc(C(=O)OC)c2c(Cl)cc(N)c(Cl)c2n1: 91.1
COC(=O)c1cc(C(N)=O)nc2cc(N)c(N)c(Cl)c12: 89.7

(Q) // Imax lookup, key: COC(=O)c1cc(C(=O)OC)c2c(Cl)cc(N(C)C)cc2n1
(A) 92.2

(Q) Reported Imax, compound CN1C(=O)c2cc(C(N)=O)nc3c(N)c(Cl)c(N)c1c23 [AMMOSAMIDE B] : ____
(A) 90.3
